Measurement Target: alcohol dehydrogenase from Pichia pastoris (PPADH) (Komagataella phaffii, UniProt C4R4L0)
Sequence (C4R4L0 entry or part of it): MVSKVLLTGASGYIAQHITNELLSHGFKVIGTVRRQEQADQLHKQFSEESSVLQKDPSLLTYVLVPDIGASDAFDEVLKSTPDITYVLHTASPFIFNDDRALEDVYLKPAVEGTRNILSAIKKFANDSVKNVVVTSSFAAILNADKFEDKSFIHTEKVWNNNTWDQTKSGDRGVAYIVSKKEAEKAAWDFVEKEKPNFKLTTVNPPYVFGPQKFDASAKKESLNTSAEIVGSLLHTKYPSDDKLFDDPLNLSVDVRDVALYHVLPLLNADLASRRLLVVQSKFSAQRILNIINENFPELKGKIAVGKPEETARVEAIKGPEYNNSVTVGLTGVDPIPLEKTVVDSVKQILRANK
Assay Comment: photometric assay, oxidation of alcohols by purified PPADH (NADP+, 340 nm)
Assay type: biochemical, Pichia pastoris GS 115
Experimental Setup: purified PPADH, 10 mM substrate, 0.2 mM NADP+, tris HCl pH 9, 25°C
Decision: specific activity compared against 2 U/mg; not below it gives 1, below it gives 0.

Field: example entries. Status: answers known.
CCCCCCC(C)O (stereo not shown)    0
C[C@@H](O)c1ccccc1 [(R)-(+)-1-phenylethanol]    0
CC[C@H](N)CO [(S)-(+)-2-amino-1-butanol]    0
CC[C@H](C)O [(S)-(+)-2-butanol]    0
C/C=C/C(C)O (stereo not shown)    0

Form field: specific activity at least 2 U/mg? Entry: C=CCC[C@H](C)O 1

Threshold query (specific activity >= 2 U/mg) on CCCCCC[C@@H](C)O [(R)-(-)-2-octanol] 0

Is specific activity at least 2 U/mg? Consider C=CC(O)CC (stereo not shown) 0

Assess whether reported specific activity for OC1C=CCCC1 (stereo not shown) sits at 2 U/mg or higher. 0

Identify whether the reported specific activity of the following compound is 2 U/mg or greater: C=CCC[C@@H](C)O [(R)-(-)-5-hexen-2-ol] 0

# bool: specific activity of CC(C)=CCCC(C)=CCO [compound 28] >= 2 U/mg 0
